Here, each record is paired with measured pIC50 data.
target: S. aureus UDP-N-acetylglucosamine enolpyruvoyl transferase, MurA (Staphylococcus aureus)
Sequence (P84058 whole entry): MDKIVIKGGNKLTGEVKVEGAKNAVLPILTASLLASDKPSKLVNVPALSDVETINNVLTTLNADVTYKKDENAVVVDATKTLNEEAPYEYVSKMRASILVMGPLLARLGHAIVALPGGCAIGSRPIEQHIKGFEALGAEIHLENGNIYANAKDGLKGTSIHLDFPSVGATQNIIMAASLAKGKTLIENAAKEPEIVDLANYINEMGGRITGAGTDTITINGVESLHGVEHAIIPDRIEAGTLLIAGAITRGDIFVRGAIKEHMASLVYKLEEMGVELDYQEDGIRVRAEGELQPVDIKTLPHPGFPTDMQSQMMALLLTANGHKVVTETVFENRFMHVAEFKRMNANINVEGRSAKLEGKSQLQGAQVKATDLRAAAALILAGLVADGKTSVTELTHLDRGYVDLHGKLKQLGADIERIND
pIC50: −log10 of the molar value.
assay_metric: pIC50

compound: COc1cc(/C=C2\OC(=O)C(c3cccc(Cl)c3)=C2O)ccc1-c1ccccc1C(F)(F)F [Example 32]
relation_qualifier: =
value_measured: 4.67
//
compound: COc1ccccc1-c1ccc(/C=C2\OC(=O)C(c3cc(Cl)cc(Cl)c3)=C2O)cc1C [Example 24]
relation_qualifier: =
value_measured: 4.81
//
compound: O=C1O/C(=C\c2ccccc2-c2ccc(Cl)c(Cl)c2)C(O)=C1c1ccc(Cl)c(Cl)c1 [Example 141]
relation_qualifier: =
value_measured: 5.20
//
compound: COc1cc(/C=C2\OC(=O)C(c3cc(Cl)cc(Cl)c3)=C2O)ccc1-c1ccccc1C(F)(F)F [Example 33]
relation_qualifier: =
value_measured: 5.10
//
compound: CC(=O)c1ccccc1-c1ccc(/C=C2\OC(=O)C(c3cc(Cl)cc(Cl)c3)=C2O)cc1C [Example 40]
relation_qualifier: =
value_measured: 4.52
//
compound: COc1cccc(C2=C(O)/C(=C/c3cccc4ccccc34)OC2=O)c1 [Example 72]
relation_qualifier: <
value_measured: 4.14
//
compound: COC(=O)c1ccc(C2=C(O)/C(=C/c3cccc4ccccc34)OC2=O)cc1 [Example 74]
relation_qualifier: <
value_measured: 4.17
//
compound: O=C1O/C(=C\c2ccc(N3CCOCC3)c3ccccc23)C(O)=C1c1cc(Cl)cc(Cl)c1 [Example 38]
relation_qualifier: <
value_measured: 4.27
//
compound: COc1cc(/C=C2\OC(=O)C(c3cc(Cl)cc(Cl)c3)=C2O)ccc1-c1ccccc1C [Example 25]
relation_qualifier: =
value_measured: 4.96
//
compound: O=Cc1cccc(C2=C(O)/C(=C/c3cccc4ccccc34)OC2=O)c1 [Example 76]
relation_qualifier: =
value_measured: 4.76
//
compound: CN(C)c1ccc(/C=C2\OC(=O)C(c3ccc(Cl)cc3)=C2O)c2ccccc12 [Example 78]
relation_qualifier: <
value_measured: 4.20
//
compound: COc1cc(/C=C2\OC(=O)C(c3cc(Cl)cc(Cl)c3)=C2O)ccc1-c1ccccc1Cl [Example 21]
relation_qualifier: =
value_measured: 4.98
//
compound: COc1cc(/C=C2\OC(=O)C(c3cccc(Cl)c3)=C2O)ccc1-c1ccccc1C [Example 22]
relation_qualifier: =
value_measured: 4.67
//
compound: COc1ccccc1-c1ccc(/C=C2\OC(=O)C(c3cccc(Cl)c3)=C2O)cc1C [Example 23]
relation_qualifier: =
value_measured: 4.48
//
compound: O=C1O/C(=C\c2ccc(-c3ccccc3)cc2)C(O)=C1c1csc2ccccc12 [Example 143]
relation_qualifier: <
value_measured: 4.20
//
compound: O=C1O/C(=C\c2cccc3ccccc23)C(O)=C1c1cc(Cl)cc(Cl)c1 [Example 70]
relation_qualifier: =
value_measured: 4.41
//
compound: O=C1O/C(=C\c2ccccc2-c2cccc(Cl)c2)C(O)=C1c1cccc(Cl)c1 [Example 140]
relation_qualifier: =
value_measured: 4.57

----------
target: S. aureus Uridine-diphosphate-N-acetvimuramoyl: L-alanine lipase, MurC (Staphylococcus aureus); assay: biochemical; settings: (S) S. aureus enzyme
Sequence (Q2FXJ0 whole entry): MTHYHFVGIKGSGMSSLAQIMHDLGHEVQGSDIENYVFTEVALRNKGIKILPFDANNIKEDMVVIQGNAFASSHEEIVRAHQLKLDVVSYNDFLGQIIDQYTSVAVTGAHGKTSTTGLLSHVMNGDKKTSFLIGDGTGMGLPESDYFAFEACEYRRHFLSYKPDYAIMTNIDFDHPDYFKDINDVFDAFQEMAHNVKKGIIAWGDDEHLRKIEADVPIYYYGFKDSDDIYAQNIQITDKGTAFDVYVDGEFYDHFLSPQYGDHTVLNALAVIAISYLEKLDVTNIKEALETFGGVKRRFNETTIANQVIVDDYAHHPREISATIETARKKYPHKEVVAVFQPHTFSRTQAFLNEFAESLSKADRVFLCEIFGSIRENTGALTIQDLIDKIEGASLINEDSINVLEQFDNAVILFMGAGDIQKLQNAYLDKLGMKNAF
assay_metric: MurC IC50 (µg/mL)

compound: O=C1OC(=CC2CCCCC2)C(O)=C1c1cccc(C(F)(F)F)c1
assay_metric: MurC IC50
value_measured: 22

compound: Cc1ccc(C=C2OC(=O)C(c3ccc(Cl)cc3)=C2O)s1 (mixture of isomers) [Example 13]
assay_metric: MurC IC50
value_measured: 15

compound: O=C1O/C(=C\c2ccc(-c3cccc(C(F)(F)F)c3)cc2)C(O)=C1c1cccc(C(F)(F)F)c1
assay_metric: MurC IC50
value_measured: 22

compound: O=C1O/C(=C\c2cccc3ccccc23)C(O)=C1c1cccc(C=NO)c1
assay_metric: MurC IC50
value_measured: 15

compound: O=C1OC(=Cc2ccc(-c3ccccc3)cc2)C(O)=C1c1cccc(C(F)(F)F)c1 (mixture of isomers)
assay_metric: MurC IC50
value_measured: 5

compound: O=C1OC(=Cc2cccc3ccccc23)C(O)=C1c1ccc(C=NO)cc1 (mixture of isomers)
assay_metric: MurC IC50
value_measured: 23
